substrate: Cc1c[nH]c(=O)[nH]c1=O; assay: purified protein; assay type: biochemical, Neurospora crassa; conditions: 1 mM α-KG, 0.2 mM (NH4)2Fe(SO4)2, 0.2 mM ascorbic acid, 100 mM Hepes pH 7.5, 25 °C
Measurement Type: Km (µM)
Write down the numeric answer in µM and omit the unit.

Would you please look over these solved cases?
Query: Dear colleague, I am looking for the recorded Km of the following protein: NcT7H (thymine-7-hydroxylase) (Neurospora crassa OR74A; R190K) (protein, full length (residues 1-333), C-terminal His6-tag, pET-28a, expressed in E. coli BL21(DE3); Ni-NTA and gel filtration, tag removal not mentioned) MEKAAVNEDGLVIPLIDFSKFLEGDETLKLETAKAILHGFQTAGFIYLKNIPIQPDFREHVFNTSAKFFKLPKEKKLEVGWTTPEANRGYSAPGREKVTQLTDPAEIEKIRSAAPDIKESYEIGREDEPGHPNPWPAEQDDLVGFKSTMNNFFDQCKALHIEVMRAIAVGMGIDANYFDSFVDVGDNILKLLHYPAVKSEVFKINPGQVRAGEHTDYGSITLLFQDSRGGLQVKSPNGQFIDATPIENTVVVNAGDLLARWSNDTIKSTVHRVVEPPKQEDVHPPRYSIAYFCNPNHKSYIEAIPGTYAAESERKYEGINSGKYLVQRLAATY
Result: 542

Query: Dear colleague, I am looking for the recorded Km of the following protein: NcT7H (thymine-7-hydroxylase) (Neurospora crassa OR74A; N87A) (protein, full length (residues 1-333), C-terminal His6-tag, pET-28a, expressed in E. coli BL21(DE3); Ni-NTA and gel filtration, tag removal not mentioned) MEKAAVNEDGLVIPLIDFSKFLEGDETLKLETAKAILHGFQTAGFIYLKNIPIQPDFREHVFNTSAKFFKLPKEKKLEVGWTTPEAARGYSAPGREKVTQLTDPAEIEKIRSAAPDIKESYEIGREDEPGHPNPWPAEQDDLVGFKSTMNNFFDQCKALHIEVMRAIAVGMGIDANYFDSFVDVGDNILRLLHYPAVKSEVFKINPGQVRAGEHTDYGSITLLFQDSRGGLQVKSPNGQFIDATPIENTVVVNAGDLLARWSNDTIKSTVHRVVEPPKQEDVHPPRYSIAYFCNPNHKSYIEAIPGTYAAESERKYEGINSGKYLVQRLAATY
Result: 638

Query: Dear colleague, I am looking for the recorded Km of the following protein: NcT7H (thymine-7-hydroxylase) (Neurospora crassa OR74A) (protein, full length (residues 1-333), C-terminal His6-tag, pET-28a, expressed in E. coli BL21(DE3); Ni-NTA and gel filtration, tag removal not mentioned) MEKAAVNEDGLVIPLIDFSKFLEGDETLKLETAKAILHGFQTAGFIYLKNIPIQPDFREHVFNTSAKFFKLPKEKKLEVGWTTPEANRGYSAPGREKVTQLTDPAEIEKIRSAAPDIKESYEIGREDEPGHPNPWPAEQDDLVGFKSTMNNFFDQCKALHIEVMRAIAVGMGIDANYFDSFVDVGDNILRLLHYPAVKSEVFKINPGQVRAGEHTDYGSITLLFQDSRGGLQVKSPNGQFIDATPIENTVVVNAGDLLARWSNDTIKSTVHRVVEPPKQEDVHPPRYSIAYFCNPNHKSYIEAIPGTYAAESERKYEGINSGKYLVQRLAATY
Result: 141

Query: Dear colleague, I am looking for the recorded Km of the following protein: NcT7H (thymine-7-hydroxylase) (Neurospora crassa OR74A; R286A) (protein, full length (residues 1-333), C-terminal His6-tag, pET-28a, expressed in E. coli BL21(DE3); Ni-NTA and gel filtration, tag removal not mentioned) MEKAAVNEDGLVIPLIDFSKFLEGDETLKLETAKAILHGFQTAGFIYLKNIPIQPDFREHVFNTSAKFFKLPKEKKLEVGWTTPEANRGYSAPGREKVTQLTDPAEIEKIRSAAPDIKESYEIGREDEPGHPNPWPAEQDDLVGFKSTMNNFFDQCKALHIEVMRAIAVGMGIDANYFDSFVDVGDNILRLLHYPAVKSEVFKINPGQVRAGEHTDYGSITLLFQDSRGGLQVKSPNGQFIDATPIENTVVVNAGDLLARWSNDTIKSTVHRVVEPPKQEDVHPPAYSIAYFCNPNHKSYIEAIPGTYAAESERKYEGINSGKYLVQRLAATY
Result: 649

Query: Dear colleague, I am looking for the recorded Km of the following protein: NcT7H (thymine-7-hydroxylase) (Neurospora crassa OR74A; Y217A) (protein, full length (residues 1-333), C-terminal His6-tag, pET-28a, expressed in E. coli BL21(DE3); Ni-NTA and gel filtration, tag removal not mentioned) MEKAAVNEDGLVIPLIDFSKFLEGDETLKLETAKAILHGFQTAGFIYLKNIPIQPDFREHVFNTSAKFFKLPKEKKLEVGWTTPEANRGYSAPGREKVTQLTDPAEIEKIRSAAPDIKESYEIGREDEPGHPNPWPAEQDDLVGFKSTMNNFFDQCKALHIEVMRAIAVGMGIDANYFDSFVDVGDNILRLLHYPAVKSEVFKINPGQVRAGEHTDAGSITLLFQDSRGGLQVKSPNGQFIDATPIENTVVVNAGDLLARWSNDTIKSTVHRVVEPPKQEDVHPPRYSIAYFCNPNHKSYIEAIPGTYAAESERKYEGINSGKYLVQRLAATY
Result: 1500

Please examine the following record next.
Query: Dear colleague, I am looking for the recorded Km of the following protein: NcT7H (thymine-7-hydroxylase) (Neurospora crassa OR74A; Y217F) (protein, full length (residues 1-333), C-terminal His6-tag, pET-28a, expressed in E. coli BL21(DE3); Ni-NTA and gel filtration, tag removal not mentioned) MEKAAVNEDGLVIPLIDFSKFLEGDETLKLETAKAILHGFQTAGFIYLKNIPIQPDFREHVFNTSAKFFKLPKEKKLEVGWTTPEANRGYSAPGREKVTQLTDPAEIEKIRSAAPDIKESYEIGREDEPGHPNPWPAEQDDLVGFKSTMNNFFDQCKALHIEVMRAIAVGMGIDANYFDSFVDVGDNILRLLHYPAVKSEVFKINPGQVRAGEHTDFGSITLLFQDSRGGLQVKSPNGQFIDATPIENTVVVNAGDLLARWSNDTIKSTVHRVVEPPKQEDVHPPRYSIAYFCNPNHKSYIEAIPGTYAAESERKYEGINSGKYLVQRLAATY
Result: 128
